Entry source: paper PMC9995496

Kindly state Inh (PKA) for each of the entries shown.
test system: PRKACA-PRKAR2A interaction (SmBiT-PRKACA / LgBiT-PRKAR2A), protein kinase A; set-up: NanoLuc complementation counter-screen in cell extract, PRKACA with PRKAR2A, loss of luminescence, detects NanoLuc interference; details: counter-screen for NanoLuc interference; 0.5 h, 20 µM; inhibitor
Where a name gives a salt, the structure may show the parent alone.
# number only, unit % dropped from output

Look up Inh (PKA) of COc1ccc2c(c1)c(CC(=O)O)c(C)n2C(=O)c1ccc(Cl)cc1 and report it.
5.004

For CN1CCC(=C2c3ccccc3CC(=O)c3sccc32)CC1 [UM0133795:02, Ketotifen Fumarate] , write its Inh (PKA).
5.692

Give the reported value of Inh (PKA) for this record: Cc1cc(C#N)cc(C)c1Oc1nc(Nc2ccc(C#N)cc2)nc(N)c1Br
89.04

Return Inh (PKA) (reported value) for this compound: CC[C@@H](C)Nc1cc(C(=O)N[C@H]2C[C@H]3CC[C@@H](C2)N3c2ccc(C(=O)C3CC3)cn2)c(C)cc1C(N)=O
5.956
